Provenance of the data: PubChem BioAssay (NCATS)

# Test system: Tov-21-G
# Assay explanation: Primary qHTS to identify gynecologic anti-cancer compounds using libraries of approved drugs and bioactive compounds (AID 1345084); further: nearly all actives have a fitted effect of over 55% in size; further: potency means the concentration at half of the fitted maximal effect
# Condition details: Gynecologic cancer cell panel viability, ATPlite luminescence, 48 h; series mostly up to 57.5 µM
Records with an inconclusive call do not appear. Calls of active or inactive are those of the source. The call rests on the fitted dose curve; in most records, active means well fitted cell-killing curve with a large enough effect; inconclusive means small, poorly fitted or top-dose-only effect, or effect the other way; inactive means flat fitted curve, though single readings scatter.
Measurement label: Potency

Examples with their reported Potency follow.
# Compound, Potency
records = [
    ("CCCCc1c(-c2ccc(OC)cc2)[nH]c2nccnc12", "inactive"),
    ("CC(C)(C)c1ccc(NC(=O)N2CCN(c3ncccc3Cl)CC2)cc1", "inactive"),
    ("NC(=O)c1cccc2[nH]c(-c3ccc(C4CCCN4)cc3F)nc12 (stereo not given)", "12.6 µM (active)"),
    ("CC1(C=O)CCCC2(C)C1CCC13CC(CO)C(CCC12)C3 (stereo not given)", "inactive"),
    ("COC(=O)C[C@H]1C(C)(C)[C@H](OC(=O)c2ccccc2)C2CC3=C4CC(=O)O[C@@H](c5ccoc5)[C@]4(C)CCC3[C@@]1(C)C2=O (stereo not given in full)", "inactive"),
    ("COc1cc2ncnc(Nc3ccc(F)c(Cl)c3)c2cc1O", "inactive"),
    ("O=C(N[C@@H]1CCCc2c1cnn2-c1ccc(F)cc1F)c1ccccn1", "inactive"),
    ("CCOc1cn(-c2ccc(F)cc2C)nc1C(=O)Nc1ccc(Oc2ccnc3cc(OC)c(OC)cc23)c(F)c1", "inactive"),
]

(Q) Provide only the value of recorded Potency for Cn1c(SCC(=O)N2CCC[C@H]2C(=O)Nc2ccccc2-c2ccccc2)nc2ccccc21
(A) inactive

(Q) Provide only the value of recorded Potency for C/C=C/C=C/c1cc2c(C=O)c(O)c(CC=C(C)C)cc2o1
(A) inactive
